Test system: SF-295
Assay: NCI tumour cell line growth inhibition, 48 h
Active and inactive are the calls of the source. Rule as the data show it: active = GI50 up to about 1.1 µM and inactive = higher.
Labels: 1 = active, 0 = inactive

• C=C1C(=O)OC2/C=C(CO)/C=C\C3OC3(C)CC(OC(=O)/C(C)=C/COC(C)=O)C12 (stereo not given) = 0
• Cc1ccc(C2SC(=N)Nc3c2c(C)nn3C(=O)c2ccc(Cl)cc2)cc1 (stereo not given) = 0
• O=C(OCC(Cl)(Cl)Cl)N1CC[C@@H](C2CCCCC2)C1 = 0
• C(=N\c1ccc(-c2nc3ccccc3s2)cc1)/c1ccc[nH]1 = 0
• CC(C)CNC1=NCC(C)S1 (stereo not given) = 0
• O=C(Nc1ccc(Cl)cc1)c1cc([N+](=O)[O-])ccc1O = 0
• CC(C)OC(=O)C1=C2c3ncccc3C(=O)N2[C@@H](Cl)[C@@H](Cl)[C@@H]1Cl = 0
• CCOC(=O)C(=O)Nc1c(C)cccc1C(C)(C)C = 0
• CC1(C)CC[C@]2(C(=O)O)CC[C@]3(C)C(=CC[C@@H]4[C@@]5(C)CC[C@@H]6OC(C)(C)OC[C@@]6(C)[C@@H]5CC[C@]43C)[C@H]2C1 = 0
• CC(=O)n1[nH]c(=O)n(-c2ccc(Cl)cc2)c1=O = 0
• N#CCc1ccccc1/C(C#N)=C1/OC(=N)C(c2ccccc2CC#N)C1=O (stereo not given) = 0
• COc1cc2ccnc(C#N)c2cc1OCc1ccccc1 = 0
• CC(=O)n1ccc2c(Cl)ncnc21 = 0
• CC(=O)Oc1cc(OC(C)=O)c2c(c1)OC(c1ccc(OC(C)=O)c(OC(C)=O)c1)CC2=O (stereo not given) = 0
• CCOC(=O)/C(=C\Nc1c(C)n(C)n(-c2ccccc2)c1=O)C(=O)c1ccccc1 = 0
• NC1=C(Br)C(=O)c2ncccc2C1=O = 1
• CN(C)/C=N/c1cc(=O)n(C)c(=O)n1C = 0
• O=C(/C=C/c1ccccc1Br)c1ccccc1 = 0
• CC1=C(C#N)C2C(=C(C)N1)C(N)=Nc1ccccc12 (stereo not given) = 0
• Nc1nc(N)c(CCCCc2ccccc2)c(/C=C/c2ccc([N+](=O)[O-])cc2)n1 = 0
• COc1cc(C2SCC(=O)N2c2ccccc2Cl)cc(OC)c1OC (stereo not given) = 0
• O=C(CCCCCCCCC(=O)N1C(=O)CC(=O)N(c2cccc(Cl)c2)C1=S)N1C(=O)CC(=O)N(c2cccc(Cl)c2)C1=S = 0
• COc1ccc(C(c2c(O)c3ccccc3n(C)c2=O)c2c(O)c3ccccc3n(C)c2=O)cc1 = 0
• Cc1cc(=O)oc2cc(SC(=O)N(C)C)ccc12 = 0
• C=CCn1c(=O)c(C(=O)Nc2nc(C34CC5CC(CC(C5)C3)C4)cs2)c(O)c2ccccc21 = 0
• COc1ccc(C2=NC(C)(C)CO2)cc1 = 0
• N=C(N)N/N=C/c1oc(-c2ccc(S(=O)(=O)O)o2)c(-c2ccc(S(=O)(=O)O)o2)c1[N+](=O)[O-] = 0
• O=C(Nc1ccccc1)c1cc2ccccc2c(/N=N/c2ccc([N+](=O)[O-])cc2)c1O = 0
• COC1/C=C/C(C)C(O)CC(O)/C=C/C(C)C(C(C)C(OC)C(C)CCC(=O)C(C)C(C/C=C/N(C)C=O)OC)OC(=O)/C=C/C=C(\C)CC(OC)CC2=CC(=O)O[C@@H](C(C)C(OC)C1)[C@H]2O (stereo not given in full) = 1
• COc1cc(/C=C2\N=C(c3ccccc3)N(c3nc4c(OC)ccc(OC)c4s3)C2=O)cc(OC)c1OC = 0
• COc1ccc(/C=C/[N+](=O)[O-])cc1 = 0
• O=C(O)C1OC(n2cc(F)c(=O)[nH]c2=O)CC1O (stereo not given) = 0
• FC1(F)SC2CCCCCCCCCCC2C1(F)F (stereo not given) = 0
• CCCCC(=O)OC[n+]1cccc(-c2c(COC(=O)NC(C)C)c(COC(=O)NC(C)C)c3n2CCC3)c1 = 0
• O=C1CCCC2=C1CC1=C(CCCC1=O)N2c1ccc(Cl)cc1 = 0
• O=C(/C=C\c1ccccc1)Oc1ccc(/C=C2\CCC/C(=C\c3ccc(OC(=O)/C=C\c4ccccc4)cc3)C2=O)cc1 = 0
• O=Cc1cn(S(=O)(=O)c2ccccc2)c2ccccc12 = 0
• CC(=O)OCCC[C@@H]1C(=C(C)C)CCC2[C@@]1(C)CC[C@@]1(C)C[C@](C)(CCC=C(C)C)CC[C@]21C (stereo not given in full) = 0
• N#Cc1c(-c2ccccc2)c(/N=N/c2ccc(Cl)cc2)c(=O)n2c1[nH]c1ccccc12 = 0
• O=C1NC2(CCCCC2)C2CCCCC=C12 (stereo not given) = 0
